# TARGET_DESC: T1, human FOLR1 protein, His Tag (ACRO FO1-H52H1) (human, UniProt P15328 25-233)
# T1 construct: Bought protein coated on ELISA plates; not shown: His tag
# PROCEDURE_TEXT: ratio of OD450 on hFOLR1 to OD450 on anti-human IgG Fc
MEASURED_PARAMETER: Target binding/IgG level
Answers are plain numbers.

Example entries and their recorded answers appear below.
- F48 (antibody, V domains shown, Tested as full-length IgG with an IgG1 Fc from HEK293, as supernatant or purified; also called clone F48; anti-FOLR1 antibody F48) VH: EVQLLESGGGVVQPGRSLRLSCAASGFTFSSYGMHWVRQAPGKGLEWVAVISYDGSNKYYADSVKGRFTISRDNSKNTLYLHMNSLRAEDTAVYYCARPRAYYGAYGSSFDYWGQGTQVTVSS VL: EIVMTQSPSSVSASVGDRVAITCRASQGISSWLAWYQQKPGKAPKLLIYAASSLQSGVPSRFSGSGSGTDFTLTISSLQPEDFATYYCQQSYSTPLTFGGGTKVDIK: 1.12
- F8 (antibody, V domains shown, Tested as full-length IgG with an IgG1 Fc from HEK293, as supernatant or purified; also called clone F8; anti-FOLR1 antibody F8) VH: EVQLLESGGGVVQHGRSLRLSCAASGFTFSSYGMHWVRQAPGKGLEWVAVISYDGSNKYYADSVKGRFTISRDNSKNTLYLQMNSLRAEDTAVYYCARPRAYYGAYGSSFDYWGQGTQVTVSS VL: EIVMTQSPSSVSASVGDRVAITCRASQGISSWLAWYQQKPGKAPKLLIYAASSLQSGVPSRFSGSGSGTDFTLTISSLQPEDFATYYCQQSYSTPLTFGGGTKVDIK: 1.12
- F26 (antibody, V domains shown, Tested as full-length IgG with an IgG1 Fc from HEK293, as supernatant or purified; also called clone F26; anti-FOLR1 antibody F26) VH: EVQLLESGGGVVQRGRSLRLSCAASGFTFSSYGMHWVRQAPGKGLEWVAVISYDGSNKYYADSVKGRFTISRDNSKNTLYLPMNSLRAEDTAVYYCARPRAYYGAYGSSFDYWGQGTQVTVSS VL: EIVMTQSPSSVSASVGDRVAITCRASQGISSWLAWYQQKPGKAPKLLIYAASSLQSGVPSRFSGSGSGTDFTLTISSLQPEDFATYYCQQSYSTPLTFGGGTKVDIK: 1.21
- F1 (antibody, V domains shown, also called clone F1; anti-FOLR1 antibody F1) VH: EVQLLESGGGVVQPGRSLRLSCAASGFTFSSYGMHWVRQAPGKGLEWVAVISYDGSNKYYADSVKGRFTISRDNSKNTLYLQMNSLRAEDTAVYYCARPRAYYGAYGSSFDYWGQGTQVTVSS VL: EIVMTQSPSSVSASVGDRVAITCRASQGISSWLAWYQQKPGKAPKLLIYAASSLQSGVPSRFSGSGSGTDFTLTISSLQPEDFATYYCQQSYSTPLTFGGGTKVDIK: 1.08

Now examine the next entry.
Record request: Target binding/IgG level value, item F112 (antibody, V domains shown, Tested as full-length IgG with an IgG1 Fc from HEK293, as supernatant or purified; also called clone F112; anti-FOLR1 antibody F112) VH: EVQLLESGGGVVQPGRSLRLSCAASGFTFSSYGMHWVRQAPGKGLEWVAVISYDGSNKYYADSVKGRFTISRHNSKNTLYLQMNSLRAEDTAVYYCARPRAYYGAYGSSFDYWGQGTQVTVSS VL: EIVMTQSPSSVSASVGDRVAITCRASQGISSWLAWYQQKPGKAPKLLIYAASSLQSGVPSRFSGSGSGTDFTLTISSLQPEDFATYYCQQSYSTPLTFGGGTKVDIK
1.12
